- target_entity: Human leukocyte MPO (Homo sapiens, UniProt P05164)
- Sequence (P05164 279-745 limits assumed): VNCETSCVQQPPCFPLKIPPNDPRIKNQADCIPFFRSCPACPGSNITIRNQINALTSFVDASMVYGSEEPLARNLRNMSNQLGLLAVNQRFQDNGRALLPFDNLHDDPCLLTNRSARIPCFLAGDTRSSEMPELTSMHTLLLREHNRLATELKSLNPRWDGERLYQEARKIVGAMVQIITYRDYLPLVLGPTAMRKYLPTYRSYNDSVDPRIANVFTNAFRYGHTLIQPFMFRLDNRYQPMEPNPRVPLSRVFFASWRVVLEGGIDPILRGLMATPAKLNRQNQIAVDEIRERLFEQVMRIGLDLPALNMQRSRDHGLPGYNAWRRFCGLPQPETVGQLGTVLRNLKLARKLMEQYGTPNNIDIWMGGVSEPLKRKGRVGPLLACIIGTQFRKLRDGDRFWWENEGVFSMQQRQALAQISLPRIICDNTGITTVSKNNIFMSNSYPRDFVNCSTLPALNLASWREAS
- Sequence (P05164 165-278 limits assumed): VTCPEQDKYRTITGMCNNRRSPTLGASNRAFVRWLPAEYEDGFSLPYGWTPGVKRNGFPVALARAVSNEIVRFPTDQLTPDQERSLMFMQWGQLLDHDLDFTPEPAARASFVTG
- assay_name: MPO chlorinating activity assay (taurine chloramine/TMB)
- Format: biochemical
- Design: Human leukocyte MPO (EC 1.7.1.11) was purchased from Planta Natural Products; purchased Planta Natural Products (Vienna, Austria); host or cells: human leukocytes
- measurement_setup: ratio of % inhibition at 20 μM; ~1 indicates true enzyme inhibitor
measured_property: chlorinating/peroxidatic activity inhibition ratio

[[record]]
molecule = "Nc1cc2c3c(cccc3c1)C(=O)N(N)C2=O"
reported_result = "~1"

[[record]]
molecule = "CC1CCc2sc3c(c2C1)c1ncnn1c1nnc(S)n31 (stereo not shown)"
reported_result = "high"

[[record]]
molecule = "COc1ccc(C(=O)Nc2ccc(-c3nnc(S)o3)cc2)cc1"
reported_result = "high"

[[record]]
molecule = "O=C1ON=C(c2ccccc2)/C1=C\\c1cccc(O)c1"
reported_result = "high"


---

- target_entity: Human leukocyte MPO (Homo sapiens)
- assay_name: MPO peroxidatic activity assay (AmplexRed oxidation)
- Assay type: biochemical
- Parameters: Human leukocyte MPO (EC 1.7.1.11) was purchased from Planta Natural Products; purchased Planta Natural Products (Vienna, Austria); host or cells: human leukocytes
- measurement_setup: supplementary csv copy of Table 1; read-out: % Inhibition (Peroxidatic)
measured_property: inhibition at 20 µM (%)

The cases that follow already have their inhibition at 20 µM on record.
[[record]]
molecule = "CCOC(=O)C(Cc1ccc(O)cc1)NC1=CC(=O)C(=O)c2ccccc21 (centres unmarked)"
target_entity = "Human leukocyte MPO (Homo sapiens)"
measured_property = "inhibition at 20 µM"
reported_result = 67.1

[[record]]
molecule = "CCCc1cc(=O)[nH]c(=S)[nH]1 [PTU, propylthiouracil, reference compound]"
target_entity = "Human leukocyte MPO (Homo sapiens)"
measured_property = "inhibition at 20 µM"
reported_result = 94.1


A. CC1=Nc2ccc(Cl)cc2-c2[nH]c3ccccc3c2N1
B. CCc1n[nH]c2c1C(c1ccc(O)c(OC)c1)C(C#N)=C(N)O2 (centres unmarked)
C. CC1CCc2sc3c(c2C1)c1ncnn1c1nnc(S)n31 (centres unmarked)
**Q:** Arrange the 3 molecules by rising inhibition at 20 µM, starting with the smallest. Note for the reader: the ranking is given by listing the labels in the order requested.
**A:** B, C, A

---

- target_entity: Human leukocyte MPO (Homo sapiens, UniProt P05164)
- assay_name: MPO peroxidatic activity assay (AmplexRed oxidation)
- Format: biochemical
- Parameters: Human leukocyte MPO (EC 1.7.1.11) was purchased from Planta Natural Products; purchased Planta Natural Products (Vienna, Austria); host or cells: human leukocytes
- measurement_setup: supplementary csv copy of Table 1; read-out: % Inhibition (Peroxidatic)
measured_property: inhibition at 20 µM (%)

Known inhibition at 20 µM results, listed for orientation:
[[record]]
molecule = "CCCOc1ccc(C2C(C#N)=C(N)SC(N)=C2C#N)cc1OC [RL26]"
target_entity = "Human leukocyte MPO (Homo sapiens, UniProt P05164)"
measured_property = "inhibition at 20 µM"
units_symbol = "%"
reported_result = 78.7

[[record]]
molecule = "CC1CCCc2sc3nc(S)n(N)c(=O)c3c21 (stereo not drawn) [RL27]"
target_entity = "Human leukocyte MPO (Homo sapiens, UniProt P05164)"
measured_property = "inhibition at 20 µM"
units_symbol = "%"
reported_result = 29.5

[[record]]
molecule = "N#CC1=C(N)Oc2c(c(=O)sc3ccccc23)C1c1ccc(F)cc1 (stereo not drawn) [RL20]"
target_entity = "Human leukocyte MPO (Homo sapiens, UniProt P05164)"
measured_property = "inhibition at 20 µM"
units_symbol = "%"
reported_result = 34

[[record]]
molecule = "Nc1cc2c3c(cccc3c1)C(=O)N(N)C2=O [RL6]"
target_entity = "Human leukocyte MPO (Homo sapiens, UniProt P05164)"
measured_property = "inhibition at 20 µM"
units_symbol = "%"
reported_result = 73


A. O=C1ON=C(c2ccccc2)/C1=C\c1cccc(O)c1 [RL17]
B. CCOC(=O)C1=C(N)Oc2cc(O)ccc2C1c1ccc(F)cc1F (stereo not drawn) [RL24]
**Q:** Short answer wanted: higher inhibition at 20 µM, A or B ? Give the chosen item's label as your response.
**A:** B

---

- target_entity: Human leukocyte MPO (Homo sapiens, UniProt P05164)
- assay_name: MPO chlorinating activity assay (taurine chloramine/TMB)
- Assay type: biochemical
- Set-up: Human leukocyte MPO (EC 1.7.1.11) was purchased from Planta Natural Products; purchased Planta Natural Products (Vienna, Austria); host or cells: human leukocytes
- measurement_setup: 20 μM compound, 10 nM MPO, 140 mM NaCl, 5 mM taurine, 40 μM H2O2, pH 7.4; read-out: % Inhibition (at 20 μM) Chlorinating
measured_property: inhibition at 20 µM (%)

Past entries and their recorded results:
[[record]]
compound = "CCCc1cc(=O)[nH]c(=S)[nH]1 [PTU, propylthiouracil, reference compound]"
target_entity = "Human leukocyte MPO (Homo sapiens, UniProt P05164)"
reported_result = 92.3

[[record]]
compound = "CC1=Nc2ccc(Cl)cc2-c2[nH]c3ccccc3c2N1 [RL1]"
target_entity = "Human leukocyte MPO (Homo sapiens, UniProt P05164)"
reported_result = 50.2


1. CCCOc1ccc(C2C(C#N)=C(N)SC(N)=C2C#N)cc1OC [RL26]
2. CC1CCCc2sc3nc(S)n(N)c(=O)c3c21 (centres unmarked) [RL27]
**Q:** I'm curious, which of these has a smaller inhibition at 20 µM number: 1 or 2 ? Reply briefly: the label of your chosen item.
**A:** 2

P. CC1CCc2sc3c(c2C1)c1ncnn1c1nnc(S)n31 (centres unmarked) [RL9]
Q. O=C1ON=C(c2ccccc2)/C1=C\c1cccc(O)c1 [RL17]
**Q:** Which shows the larger inhibition at 20 µM value: P or Q ? Please reply using the label of the selected record.
**A:** P
(P: 92%, Q: 63%)

a. COc1ccc(C(=O)Nc2ccc(-c3nnc(S)o3)cc2)cc1 [RL18]
b. CCOC(=O)C1=C(N)Oc2cc(O)ccc2C1c1ccc(F)cc1F (centres unmarked) [RL24]
**Q:** Dear colleague, could you let me know whether a or b has the lower recorded inhibition at 20 µM? Thanks. // caller expects the label of the chosen entry
**A:** b
(b: 40.1%, a: 73%)

---

- Tested on: IL-1β
- assay_name: Paw tissue IL-1β level after MSU (ELISA)
- Format: in vivo, male C57BL/6 mice
- measurement_setup: intraperitoneal pretreatment (RL6 30 mg/kg), tissue collected at 6 h
measured_property: decrease in IL-1β levels in hind paw tissue

[[record]]
compound = "Nc1cc2c3c(cccc3c1)C(=O)N(N)C2=O [RL6]"
reported_result = "48.3%"

[[record]]
compound = "CN1CCc2nc3sc(C(=O)Nc4cccc(C#N)c4)c(N)c3cc2C1 [RL7]"
reported_result = "unable to decrease"

[[record]]
compound = "Cc1cccc(Nc2ccccc2C(=O)O)c1C [mefenamic acid, reference compound]"
reported_result = "unable to decrease"

[[record]]
compound = "CCc1c(O)[nH]c2nc3ccccc3n2c1=O [ZINC9089086]"
reported_result = "unable to decrease"


---

- Test system: total peroxidase activity
- assay_name: Paw tissue total peroxidase activity after MSU
- Format: in vivo, male C57BL/6 mice
- measurement_setup: intraperitoneal pretreatment (RL6 30 mg/kg), tissue collected at 6 h
measured_property: reduction in total peroxidase activity in hind paw tissue

[[record]]
compound = "Nc1cc2c3c(cccc3c1)C(=O)N(N)C2=O"
reported_result = "61.5%"

[[record]]
compound = "CN1CCc2nc3sc(C(=O)Nc4cccc(C#N)c4)c(N)c3cc2C1"
reported_result = "unable to decrease"

[[record]]
compound = "CCc1c(O)[nH]c2nc3ccccc3n2c1=O"
reported_result = "unable to decrease"

[[record]]
compound = "Cc1cccc(Nc2ccccc2C(=O)O)c1C [mefenamic acid, reference compound]"
reported_result = "unable to decrease"


---

- target_entity: Human leukocyte MPO (Homo sapiens)
- assay_name: MPO chlorinating activity assay (taurine chloramine/TMB)
- Type: biochemical
- Parameters: Human leukocyte MPO (EC 1.7.1.11) was purchased from Planta Natural Products; purchased Planta Natural Products (Vienna, Austria); host or cells: human leukocytes
- measurement_setup: 20 μM compound, 10 nM MPO, 140 mM NaCl, 5 mM taurine, 40 μM H2O2, pH 7.4; read-out: % Inhibition (at 20 μM) Chlorinating
measured_property: inhibition at 20 µM (%)
Please give a number only; it is taken to be in %.

[[record]]
compound = "CCc1n[nH]c2c1C(c1ccc(O)c(OC)c1)C(C#N)=C(N)O2 (stereo not drawn)"
measured_property = "inhibition at 20 µM"
reported_result = 57.8

[[record]]
compound = "Nc1cc2c3c(cccc3c1)C(=O)N(N)C2=O"
measured_property = "inhibition at 20 µM"
reported_result = 86.5


Here is another compound to look at.
**Q:** Consider the compound shown here: CN1CCc2nc3sc(C(=O)Nc4cccc(C#N)c4)c(N)c3cc2C1 What is its recorded inhibition at 20 µM?
**A:** 84.9
